- Tested on: HT-1080
- test.protocol: Cytotoxicity against human HT1080 cells after 48 hrs by MTT assay
- Format: functional, cell-based
- run.parameters: HT-1080, 48 h
# IC50 values compiled below
parameter: IC50

Cc1ccc(/C=C/C(=O)N[C@H]2[C@H](O[C@H]3CC[C@@]4(C)C(=CC[C@H]5[C@@H]6C[C@@H]7O[C@]8(CC[C@@H](C)CO8)[C@@H](C)[C@@H]7[C@@]6(C)CC[C@@H]54)C3)O[C@H](CO)[C@@H](O)[C@@H]2O)cc1 23.5 µM
COc1cccc(/C=C/C(=O)N[C@H]2[C@H](O[C@H]3CC[C@@]4(C)C(=CC[C@H]5[C@@H]6C[C@@H]7O[C@]8(CC[C@@H](C)CO8)[C@@H](C)[C@@H]7[C@@]6(C)CC[C@@H]54)C3)O[C@H](CO)[C@@H](O)[C@@H]2O)c1 26.6 µM
C[C@@H]1CC[C@@]2(OC1)O[C@H]1C[C@H]3[C@@H]4CC=C5C[C@@H](O[C@@H]6O[C@H](CO)[C@@H](O)[C@H](O)[C@H]6NC(=S)N/N=C/c6cc(C(F)(F)F)cc(C(F)(F)F)c6)CC[C@]5(C)[C@H]4CC[C@]3(C)[C@H]1[C@@H]2C > 50 µM
C[C@@H]1CC[C@@]2(OC1)O[C@H]1C[C@H]3[C@@H]4CC=C5C[C@@H](O[C@@H]6O[C@H](CO)[C@@H](O)[C@H](O)[C@H]6NC(=O)/C=C/c6ccccc6)CC[C@]5(C)[C@H]4CC[C@]3(C)[C@H]1[C@@H]2C 29.8 µM

* * *

# pIC50 values compiled below
- Test system: MCF7
- test.protocol: Cytotoxicity against human MCF7 cells after 48 hrs by MTT assay
- Assay type: functional, cell-based
- run.parameters: MCF7, 48 h
pIC50: −log10 of the molar value.

compound	experimental.target	pIC50
C[C@@H]1CC[C@@]2(OC1)O[C@H]1C[C@H]3[C@@H]4CC=C5C[C@@H](O[C@@H]6O[C@H](CO)[C@@H](O)[C@H](O)[C@H]6NC(=O)NC(C)(C)C)CC[C@]5(C)[C@H]4CC[C@]3(C)[C@H]1[C@@H]2C	MCF7	4.57
CCCCCCCNC(=O)N[C@H]1[C@H](O[C@H]2CC[C@@]3(C)C(=CC[C@H]4[C@@H]5C[C@@H]6O[C@]7(CC[C@@H](C)CO7)[C@@H](C)[C@@H]6[C@@]5(C)CC[C@@H]43)C2)O[C@H](CO)[C@@H](O)[C@@H]1O	MCF7	< 4.30
COc1cc(/C=C/C(=O)N[C@H]2[C@H](O[C@H]3CC[C@@]4(C)C(=CC[C@H]5[C@@H]6C[C@@H]7O[C@]8(CC[C@@H](C)CO8)[C@@H](C)[C@@H]7[C@@]6(C)CC[C@@H]54)C3)O[C@H](CO)[C@@H](O)[C@@H]2O)cc(OC)c1OC	MCF7	< 4.30
C[C@@H]1CC[C@@]2(OC1)O[C@H]1C[C@H]3[C@@H]4CC=C5C[C@@H](O[C@@H]6O[C@H](CO)[C@@H](O)[C@H](O)[C@H]6NC(=S)N/N=C/c6cc(C(F)(F)F)cc(C(F)(F)F)c6)CC[C@]5(C)[C@H]4CC[C@]3(C)[C@H]1[C@@H]2C	MCF7	< 4.30
O=c1[nH]cc(F)c(=O)[nH]1 [FLUOROURACIL]	MCF7	4.10
COc1ccc(CNC(=O)N[C@H]2[C@H](O[C@H]3CC[C@@]4(C)C(=CC[C@H]5[C@@H]6C[C@@H]7O[C@]8(CC[C@@H](C)CO8)[C@@H](C)[C@@H]7[C@@]6(C)CC[C@@H]54)C3)O[C@H](CO)[C@@H](O)[C@@H]2O)cc1	MCF7	< 4.30
C[C@@H]1CC[C@@]2(OC1)O[C@H]1C[C@H]3[C@@H]4CC=C5C[C@@H](O[C@@H]6O[C@H](CO)[C@@H](O)[C@H](O)[C@H]6NC(=O)/C=C/c6cccc(Br)c6)CC[C@]5(C)[C@H]4CC[C@]3(C)[C@H]1[C@@H]2C	MCF7	< 4.30
COc1ccc(/C=C/C(=O)N[C@H]2[C@H](O[C@H]3CC[C@@]4(C)C(=CC[C@H]5[C@@H]6C[C@@H]7O[C@]8(CC[C@@H](C)CO8)[C@@H](C)[C@@H]7[C@@]6(C)CC[C@@H]54)C3)O[C@H](CO)[C@@H](O)[C@@H]2O)cc1OC	MCF7	4.50

* * *

- Test system: HT-1080
- test.protocol: Cytotoxicity against human HT1080 cells after 48 hrs by MTT assay
- Format: functional, cell-based
- run.parameters: HT-1080, 48 h
pIC50: −log10 of the molar value.
parameter: pIC50

COc1cccc(/C=C/C(=O)N[C@H]2[C@H](O[C@H]3CC[C@@]4(C)C(=CC[C@H]5[C@@H]6C[C@@H]7O[C@]8(CC[C@@H](C)CO8)[C@@H](C)[C@@H]7[C@@]6(C)CC[C@@H]54)C3)O[C@H](CO)[C@@H](O)[C@@H]2O)c1OC 4.67

* * *

- System: MCF7
- test.protocol: Cytotoxicity against human MCF7 cells after 48 hrs by MTT assay
- Format: functional, cell-based
- run.parameters: MCF7, 48 h
pIC50: −log10 of the molar value.
parameter: pIC50

COc1ccc(/C=C/C(=O)N[C@H]2[C@H](O[C@H]3CC[C@@]4(C)C(=CC[C@H]5[C@@H]6C[C@@H]7O[C@]8(CC[C@@H](C)CO8)[C@@H](C)[C@@H]7[C@@]6(C)CC[C@@H]54)C3)O[C@H](CO)[C@@H](O)[C@@H]2O)cc1 6.30

* * *

- Test system: HT-1080
- test.protocol: Cytotoxicity against human HT1080 cells after 48 hrs by MTT assay
- Format: functional, cell-based
- run.parameters: HT-1080, 48 h
pIC50: −log10 of the molar value.
# pIC50 values compiled below
parameter: pIC50

COc1ccc(/C=C/C(=O)N[C@H]2[C@H](O[C@H]3CC[C@@]4(C)C(=CC[C@H]5[C@@H]6C[C@@H]7O[C@]8(CC[C@@H](C)CO8)[C@@H](C)[C@@H]7[C@@]6(C)CC[C@@H]54)C3)O[C@H](CO)[C@@H](O)[C@@H]2O)cc1OC < 4.30
COc1cc(/C=C/C(=O)N[C@H]2[C@H](O[C@H]3CC[C@@]4(C)C(=CC[C@H]5[C@@H]6C[C@@H]7O[C@]8(CC[C@@H](C)CO8)[C@@H](C)[C@@H]7[C@@]6(C)CC[C@@H]54)C3)O[C@H](CO)[C@@H](O)[C@@H]2O)cc(OC)c1OC < 4.30
COc1ccc(OC)c(/C=C/C(=O)N[C@H]2[C@H](O[C@H]3CC[C@@]4(C)C(=CC[C@H]5[C@@H]6C[C@@H]7O[C@]8(CC[C@@H](C)CO8)[C@@H](C)[C@@H]7[C@@]6(C)CC[C@@H]54)C3)O[C@H](CO)[C@@H](O)[C@@H]2O)c1 < 4.30
COc1ccc(/C=C/C(=O)N[C@H]2[C@H](O[C@H]3CC[C@@]4(C)C(=CC[C@H]5[C@@H]6C[C@@H]7O[C@]8(CC[C@@H](C)CO8)[C@@H](C)[C@@H]7[C@@]6(C)CC[C@@H]54)C3)O[C@H](CO)[C@@H](O)[C@@H]2O)c(OC)c1 5.24
C[C@@H]1CC[C@@]2(OC1)O[C@H]1C[C@H]3[C@@H]4CC=C5C[C@@H](O[C@@H]6O[C@H](CO)[C@@H](O)[C@H](O)[C@H]6NC(=O)NC6CC6)CC[C@]5(C)[C@H]4CC[C@]3(C)[C@H]1[C@@H]2C < 4.30
C[C@@H]1CC[C@@]2(OC1)O[C@H]1C[C@H]3[C@@H]4CC=C5C[C@@H](O[C@@H]6O[C@H](CO)[C@@H](O)[C@H](O)[C@H]6NC(=S)N/N=C/c6ccccc6)CC[C@]5(C)[C@H]4CC[C@]3(C)[C@H]1[C@@H]2C < 4.30
C[C@@H]1CC[C@@]2(OC1)O[C@H]1C[C@H]3[C@@H]4CC=C5C[C@@H](O[C@@H]6O[C@H](CO)[C@@H](O)[C@H](O)[C@H]6NC(=O)/C=C/c6cccc(Br)c6)CC[C@]5(C)[C@H]4CC[C@]3(C)[C@H]1[C@@H]2C < 4.30
CC(=O)N[C@H]1[C@H](O[C@H]2CC[C@@]3(C)C(=CC[C@H]4[C@@H]5C[C@@H]6O[C@]7(CC[C@@H](C)CO7)[C@@H](C)[C@@H]6[C@@]5(C)CC[C@@H]43)C2)O[C@H](CO)[C@@H](O)[C@@H]1O < 4.30
C[C@@H]1CC[C@@]2(OC1)O[C@H]1C[C@H]3[C@@H]4CC=C5C[C@@H](O[C@@H]6O[C@H](CO)[C@@H](O)[C@H](O)[C@H]6NC(=O)NC(C)(C)C)CC[C@]5(C)[C@H]4CC[C@]3(C)[C@H]1[C@@H]2C 4.37
C[C@@H]1CC[C@@]2(OC1)O[C@H]1C[C@H]3[C@@H]4CC=C5C[C@@H](O[C@@H]6O[C@H](CO)[C@@H](O)[C@H](O)[C@H]6NC(=O)NCc6ccccc6)CC[C@]5(C)[C@H]4CC[C@]3(C)[C@H]1[C@@H]2C < 4.30
O=c1[nH]cc(F)c(=O)[nH]1 4.82
COc1ccc(/C=N/NC(=S)N[C@H]2[C@H](O[C@H]3CC[C@@]4(C)C(=CC[C@H]5[C@@H]6C[C@@H]7O[C@]8(CC[C@@H](C)CO8)[C@@H](C)[C@@H]7[C@@]6(C)CC[C@@H]54)C3)O[C@H](CO)[C@@H](O)[C@@H]2O)cc1 < 4.30

The values you see were collected from ChEMBL document CHEMBL2203140.
